target: Rev-RRE complexes (recombinant Rev protein, synthetic 32P-labelled RRE RNA) (Human immunodeficiency virus type 1 group M subtype B)
Sequence (P04618 whole entry, looked up, one chain of several): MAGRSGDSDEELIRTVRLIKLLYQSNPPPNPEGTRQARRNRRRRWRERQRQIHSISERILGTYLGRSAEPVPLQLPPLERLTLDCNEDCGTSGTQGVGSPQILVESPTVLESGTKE
assay_remarks: Rev-RRE binding inhibition, nitrocellulose filter binding assay with scintillation counting
Parameters: species or system Human Immunodeficiency Virus (HIV)
condition_context: array assayed at 6 ug/mL, non-specific competitor RNA, read-out: % inh
inhibition at 6 µg/mL by entry:
measurement_kind: inhibition at 6 µg/mL (%)

>>> val("O=C(NCc1cccc2ccccc12)/C(=C/c1ccc(F)cc1F)NC(=O)c1ccc2ccccc2c1")
93
>>> val("Cc1ccc(CCNC(=O)/C(=C/c2ccc(C(F)(F)F)cc2)NC(=O)c2ccc(C(F)(F)F)cc2)cc1")
95
>>> val("Cc1ccc(C(=O)N/C(=C\\c2ccc(F)cc2F)C(=O)NCC(O)c2ccccc2)cc1 (centres unmarked)")
96
>>> val("O=C(NC1CCCc2ccccc21)/C(=C/c1cccc(C(F)(F)F)c1)NC(=O)c1ccc(Cl)cc1Cl (centres unmarked)")
90
>>> val("O=C(NC(c1ccccc1)c1ccccc1)/C(=C/c1cccc(C(F)(F)F)c1)NC(=O)c1ccc(Cl)cc1Cl")
96
>>> val("O=C(NC1CCCc2ccccc21)/C(=C/c1ccc(C(F)(F)F)cc1)NC(=O)c1ccc2ccccc2c1 (centres unmarked)")
95
>>> val("O=C(NCC(c1ccccc1)c1ccccc1)/C(=C/c1ccc(C(F)(F)F)cc1)NC(=O)c1ccc2ccccc2c1")
95
>>> val("O=C(NCCCc1ccccc1)/C(=C/c1ccc(C(F)(F)F)cc1)NC(=O)c1ccc2ccccc2c1")
91
>>> val("O=C(NCc1ccccc1)/C(=C/c1ccc(-c2ccccc2)cc1)NC(=O)c1ccc(Cl)cc1Cl")
94
>>> val("O=C(NC1CCCc2ccccc21)/C(=C/c1ccc(OC(F)(F)F)cc1)NC(=O)c1ccc2ccccc2c1 (centres unmarked)")
94
>>> val("Cc1ccc(CCNC(=O)/C(=C/c2cccc(C(F)(F)F)c2)NC(=O)c2ccc3ccccc3c2)cc1")
96
>>> val("O=C(NC1CCCc2ccccc21)/C(=C/c1cccc(Oc2ccccc2)c1)NC(=O)c1ccc(C(F)(F)F)cc1 (centres unmarked)")
90
>>> val("CC(C)CC(CO)NC(=O)/C(=C/c1cccc(C(F)(F)F)c1)NC(=O)c1ccc2ccccc2c1 (centres unmarked)")
94
>>> val("O=C(NCc1cccc2ccccc12)/C(=C/c1cccc(C(F)(F)F)c1)NC(=O)c1ccc2ccccc2c1")
94
>>> val("O=C(NC1CCc2ccccc21)/C(=C/c1ccc(C(F)(F)F)cc1)NC(=O)c1ccc2ccccc2c1 (centres unmarked)")
92
>>> val("Cc1ccc(C(=O)N/C(=C\\c2ccccc2Cl)C(=O)NCc2cccc3ccccc23)cc1")
90
>>> val("O=C(NCC(c1ccccc1)c1ccccc1)/C(=C/c1cc(F)cc(F)c1)NC(=O)c1ccc(Cl)cc1Cl")
94
